endpoint: melting point

Examples from the recorded data:
Look up melting point: C=CC(=O)Nc1ccccc1 103 to 106 °C

Which melting point value is on record for NC(=O)CCOc1ccccc1F ? 85 to 87 °C

Reported melting point, compound COc1ccc(C(=O)C(F)(F)F)cc1OC : ____ 77 to 79 °C

***
# get_value(readout='melting point', item= Cn1c(C(=O)O)cc2c(=O)n3ccccc3nc21 ) 288 to 290 °C

GET /values?readout=melting point&item= O=C(O)CC1SC(=NN=Cc2ccc(Br)s2)NC1=O (stereo not drawn) 278 to 280 °C

Form field: reported melting point of COc1ccc(N2CCC(=O)CC2)cc1 66 to 68 °C

Bench note: what melting point did COc1cc2c(cc1OC)C(c1ccccc1)NCC2 (stereo not drawn) show? 111 to 113 °C

If you can, please state the reported melting point value of Cc1csc(-c2cccc(O)c2)n1 . 108 to 110 °C

Find the recorded melting point belonging to O=C(O)c1ccccc1Nc1ccc(SC(F)F)cc1 and report it. 116 to 118 °C

I'd like to know its melting point. The compound in question is COc1ccc(Cl)cc1C(C)=O 33 to 35 °C

Requested read-out: melting point. Entry: CNc1ccc(S(C)(=O)=O)cc1 126 to 128 °C

Could you tell me which melting point is on file for N#Cc1cccc(OCc2ccoc2C(=O)O)c1 ? 177 to 179 °C

Quick one: melting point of O=C(CC1SC(N2CCCC2)=NC1=O)Nc1ccc(C(=O)O)cc1 (stereo not drawn) ? 180 to 183 °C
